# ASSAYED TARGET: SHP2-C SH2;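 note: peptide library displayed on the E. coli surface as eCPX fusions, selected cells deep-sequenced, score is each peptide's frequency after selection divided by its frequency in the input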
# ASSAY TEXT: SH2 binding enrichment of the phosphorylated peptide, bacterial display (enrichment ratio); higher = better substrate or ligand; peptides without Tyr show the background
REPORTED METRIC: SH2 binding enrichment

// below: answered sequences
• RLRKFYLGKFL [KLB_Y906_YF] = 0.549
• QKLPLYILENN [VPS13B_Y2774_S2773L] = 0.802
• WIGRKYKKVRF [F8_Y442_R437W] = 0.456
• GLAELYEYKKK [CKAP5_Y1854] = 1.31
• DQNVEYKGTVS [FHL1_Y117_W122S] = 0.704
• FPCSVYMPDEW [INSR_Y1011_V1012M] = 0.956
• TDLAYYLVRKG [ASL_Y376] = 1.41
• KWRGQYDVANK [BTK_Y425_I429N] = 0.957

P = TSSAGYRAAEG [COL6A3_Y543]
Q = LNEVGYDDIGG [VCP_Y203]
Of the two listed items, which has the higher SH2 binding enrichment? First: P Second: Q When you have decided, please share the label of that item. Q
